- systemUnderTest: (Lyso)-N-acylphosphatidylethanolamine lipase (Mus musculus) (UniProt Q8VD66)
- Sequence (Q8VD66 whole entry, looked up): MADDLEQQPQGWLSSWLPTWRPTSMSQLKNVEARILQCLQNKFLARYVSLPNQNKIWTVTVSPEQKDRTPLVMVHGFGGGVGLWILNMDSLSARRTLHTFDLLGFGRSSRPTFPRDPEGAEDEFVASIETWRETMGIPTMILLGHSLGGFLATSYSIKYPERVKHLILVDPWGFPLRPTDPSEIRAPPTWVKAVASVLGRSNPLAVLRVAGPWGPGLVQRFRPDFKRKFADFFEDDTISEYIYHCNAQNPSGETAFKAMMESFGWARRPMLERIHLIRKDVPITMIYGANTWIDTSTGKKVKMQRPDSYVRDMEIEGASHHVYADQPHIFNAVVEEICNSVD
- measurementDescription: ABHD4 inhibitors, primary screen, biochemical, fluorescence polarization, mouse (AID 720543)
- testParameters: purified mABHD4, FP-Rh probe fluorescence polarization; at 8.92 µM
Out of some 370,000 compounds screened, about 2,000 (0.54%) were called active.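 Rule for the calls: active = inhibition exceeding the mean over every tested compound plus 3 SD (cut at about 30% in these data); inactive = the rest.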 The list comes from a sample in which actives are over-represented; it also holds close analogues and randomly drawn compounds.
Classes used: TRUE = active, FALSE = inactive

molecule	discreteLabel
C=C1c2c(Cl)ccc(O)c2C(O)=C2C(=O)[C@]3(O)C(O)=C(C(N)=O)C(=O)[C@@H](N(C)C)[C@@H]3[C@@H](O)C12 (stereo partly drawn)	TRUE
CCc1ccccc1NC(=S)Nc1cc(OC)c(NC(=O)C(C)C)cc1OC	TRUE
CCOc1ccc(/C(O)=C2\C(=O)C(=O)N(c3ccc(OC)cc3)C2c2ccccc2[N+](=O)[O-])cc1 (stereo not drawn)	FALSE
CCc1c(C)nc2c(OC)cccc2c1Cl	FALSE
COc1ccc(OC)c(NC(=O)c2ccc3c(c2)C(=O)N(c2ccc(OC(C)=O)cc2)C3=O)c1	FALSE
COC(=O)[C@H](C(C)C)N1CCc2nnn(Cc3ccc(C)cc3)c2-c2ccccc2S1(=O)=O	FALSE
CCOC(=O)c1csc(NC(=O)C2CCCN(S(=O)(=O)c3ccc(Cl)s3)C2)n1 (stereo not drawn)	FALSE
O=C(C1CCN(S(=O)(=O)c2ccc(Br)s2)CC1)N1CCN(c2ccccc2)CC1	FALSE
CCOC(=O)C1CCN(C(=O)C(C)(C)NC(=O)Nc2ccc(F)c(F)c2)CC1	FALSE
CN(C)[C@@H]1C(=O)C(C(N)=O)=C(O)[C@@]2(O)C(=O)C3=C(O)c4c(O)ccc(Cl)c4[C@@H](O)[C@H]3C[C@@H]12	TRUE
CCOC(=O)C1=C(C)N=C2c3ccccc3C(=O)C2C1c1ccc(Br)cc1 (stereo not drawn)	TRUE
Cc1cc(C)cc(NC(=O)N2CCC(N(C)CCC(C)C)CC2)c1	FALSE
Cc1cc(C)nc(NC(=S)N2CCN(c3ccc(C(F)(F)F)cn3)CC2)c1	FALSE

Origin of values: PubChem BioAssay AID720543
